Field: logFC medium GFP. Provide a value for each of the substances that follow.
Test system: EGFP reporter (7×TetO array, basal CMV promoter) in HEK293T reporter cell line
Test: TAD-seq pooled activation screen of 60-aa fragments fused to PYL1
Type: cell-based, human
Conditions: log 2 fold change of counts, sorted medium GFP cells (top 2-5%) vs unsorted cells; 100 μM ABA 48 hours
One number for each entry.

Example substances with recorded logFC medium GFP:
CITED1-8: 60-aa TAD-seq fragment of CITED1 (ESLSPSAGAQSPAIIDSDPVDEEVLMSLVVELGLDRANELPELWLGQNEFDFTADFPSSC; listed as Homo sapiens)	−1.166
ATXN7L3-4: 60-aa TAD-seq fragment of ATXN7L3 (FEIVDQPGLDIFGQVFNQWKSKECVCPNCSRSIAASRFAPHLEKCLGMGRNSSRIANRRI; listed as Homo sapiens)	0.7514

logFC medium GFP for CSRNP1-28: 60-aa TAD-seq fragment of CSRNP1 (DNIEAPHFPLPGLSPPGDASSCFLESLMGFSEPAAEALDPFIDSQFEDTVPASLMEPVPV; listed as Homo sapiens) ?
0.6955

###

Test system: EGFP reporter (7×TetO array, basal CMV promoter) in HEK293T reporter cell line
Assay: TAD-seq pooled activation screen of 60-aa fragments fused to PYL1
Type: cell-based, human
Details: log 2 fold change of counts, sorted high GFP cells (top 1%) vs unsorted cells; 100 μM ABA 48 hours
Parameter threshold = 2. Response is class 1 when logFC high GFP meets or exceeds it, else class 0.

FAM22F-19: 60-aa TAD-seq fragment of FAM22F (PRPQRPAETNAHLPPPRPQRPAETKVPEEIPPEVVQEYVDIMEELLGSHPGDTGEPEGQR; listed as Homo sapiens)	class 0
ELF4-1: 60-aa TAD-seq fragment of ELF4 (MAITLQPSDLIFEFASNGMDDDIHQLEDPSVFPAVIVEQVPYPDLLHLYSGLELDDVHNG; listed as Homo sapiens)	class 0
VP64: synthetic transactivator, four tandem copies of the viral VP16 transactivation motif (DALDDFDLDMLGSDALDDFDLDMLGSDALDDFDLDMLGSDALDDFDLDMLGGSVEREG; listed as Homo sapiens) [reference compound]	class 1

Has BTBD18-25: 60-aa TAD-seq fragment of BTBD18 (EEYRITSAAATSELEEILDFMLCGSDIEPPIGSLESPGAEGCRTPTYHLTETGKNWIEGE; listed as Homo sapiens) a recorded logFC high GFP greater than or equal to 2?
class 0

###

System: EGFP reporter (7×TetO array, basal CMV promoter) in HEK293T reporter cell line
Assay: TAD-seq pooled activation screen of 60-aa fragments fused to PYL1
Format: cell-based, human
Conditions: log 2 fold change of counts, sorted high GFP cells (top 1%) vs unsorted cells; 100 μM ABA 48 hours
Assay Endpoint: logFC high GFP
One number for each entry.

HSF1-24: 60-aa TAD-seq fragment of HSF1 (SGKQLVHYTAQPLFLLDPGSVDTGSNDLPVLFELGEGSYFSEGDGFAEDPTISLLTGSEP; listed as Homo sapiens)	0.6763
HOXA2-5: 60-aa TAD-seq fragment of HOXA2 (RGSPVPAGALQPPEYPWMKEKKAAKKTALLPAAAAAATAAATGPACLSHKESLEIADGSG; listed as Homo sapiens)	1.684

With those in mind, consider the next substance.
logFC high GFP for ATF6-2: 60-aa TAD-seq fragment of ATF6 (HRLDEDWDSALFAELGYFTDTDELQLEAANETYENNFDNLDFDLDLVPWESDIWDINNQI; listed as Homo sapiens) ?
4.688
